Origin of the recorded values: patent US9801872B2

Target: human BTK (Homo sapiens (Human))
Sequence (Q06187 382-659): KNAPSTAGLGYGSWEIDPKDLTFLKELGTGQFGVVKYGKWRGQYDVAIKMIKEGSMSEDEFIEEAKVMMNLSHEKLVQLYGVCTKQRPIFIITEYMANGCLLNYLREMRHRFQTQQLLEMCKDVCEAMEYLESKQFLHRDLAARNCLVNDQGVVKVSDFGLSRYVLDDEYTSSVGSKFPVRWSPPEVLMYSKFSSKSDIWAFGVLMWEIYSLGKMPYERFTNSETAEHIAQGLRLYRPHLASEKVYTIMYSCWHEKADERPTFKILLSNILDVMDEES
Test: BTK inhibition: BTK-mediated phosphorylation of FAM-labeled substrate 5-FAM-[…]-NH2 (Caliper LC-3000)
Assay type: biochemical
Conditions Used: residues 382 to 659 of human BTK; 60 minutes at room temperature; pIC50 = -log(IC50), IC50 molar
Attribute Measured: BTK Inhibition (pIC50)

{"Compound": "C=C(C)C(=O)N1CC[C@H](Nc2nc(-c3n[nH]c(=O)[nH]3)cc3ccccc23)C1 [Example 10]", "BTK Inhibition (pIC50)": 7.5}
{"Compound": "O=C(CCl)N1CC[C@H](Oc2nc(-c3n[nH]c(=O)[nH]3)cc3ccccc23)C1 [Example 33]", "BTK Inhibition (pIC50)": ">8.2"}

(Q) I would be grateful if you could share the reported BTK Inhibition (pIC50) for C=CC(=O)N1CC[C@H](Oc2nc(-c3n[nH]c(=O)[nH]3)cc3cccnc23)C1 [Example 16] .
(A) >8.5

(Q) Query C=CC(=O)N1C[C@@H](C)[C@H](Oc2nc(-c3n[nH]c(=O)[nH]3)cc3ccccc23)C1 [Example 21] next
(A) 6.9

(Q) Try C=CC(=O)N1CC[C@H](Oc2nc(-c3n[nH]c(=O)[nH]3)cc3cccc(Cl)c23)C1 [Example 27] next.
(A) >8.9

(Q) Please give the result for C=CC(=O)N1CC[C@H](Oc2nc(-c3n[nH]c(=O)[nH]3)cc3ccc(F)cc23)C1 [Example 18] too.
(A) >8.2

(Q) // repeat for C=CC(=O)N1CCC[C@H]1COc1nc(-c2n[nH]c(=O)[nH]2)cc2ccccc12 [Example 7] and report
(A) 8.0
